Target: NEK2 (Homo sapiens (Human))
Assay: KINATIV assay
Type: cell-based
Settings: 1 μM, 90 minutes, BCWM.1 cells
value-type: % change of MS signal compared to control sample

{"columns": ["compound", "observed-value"],
 "data": [
  ["C=CC(=O)N1CCC(CNc2nccc(Nc3ncc(C(=O)Nc4c(C)cccc4C)s3)n2)C1 (racemic)", "−3.0%"],
  ["C=CC(=O)N1CCCCC(Nc2nccc(Nc3ncc(C(=O)Nc4c(C)cccc4C)s3)n2)C1 (stereo not shown)", "8.5%"],
  ["C=CC(=O)N1CCC(Cn2ccc(Nc3ncc(C(=O)Nc4c(C)cccc4Cl)s3)n2)C1 (stereo not shown)", "−6.0%"],
  ["C=CC(=O)N1CC[C@@H](Nc2nccc(Nc3ncc(C(=O)Nc4c(C)cccc4C)s3)n2)C1", "22.3%"]
]}

---

Here the recorded % change of MS signal compared to control sample is given for each entry.
Molecular target: UniProtKB Q96S38
Sequence (Q96S38 whole entry): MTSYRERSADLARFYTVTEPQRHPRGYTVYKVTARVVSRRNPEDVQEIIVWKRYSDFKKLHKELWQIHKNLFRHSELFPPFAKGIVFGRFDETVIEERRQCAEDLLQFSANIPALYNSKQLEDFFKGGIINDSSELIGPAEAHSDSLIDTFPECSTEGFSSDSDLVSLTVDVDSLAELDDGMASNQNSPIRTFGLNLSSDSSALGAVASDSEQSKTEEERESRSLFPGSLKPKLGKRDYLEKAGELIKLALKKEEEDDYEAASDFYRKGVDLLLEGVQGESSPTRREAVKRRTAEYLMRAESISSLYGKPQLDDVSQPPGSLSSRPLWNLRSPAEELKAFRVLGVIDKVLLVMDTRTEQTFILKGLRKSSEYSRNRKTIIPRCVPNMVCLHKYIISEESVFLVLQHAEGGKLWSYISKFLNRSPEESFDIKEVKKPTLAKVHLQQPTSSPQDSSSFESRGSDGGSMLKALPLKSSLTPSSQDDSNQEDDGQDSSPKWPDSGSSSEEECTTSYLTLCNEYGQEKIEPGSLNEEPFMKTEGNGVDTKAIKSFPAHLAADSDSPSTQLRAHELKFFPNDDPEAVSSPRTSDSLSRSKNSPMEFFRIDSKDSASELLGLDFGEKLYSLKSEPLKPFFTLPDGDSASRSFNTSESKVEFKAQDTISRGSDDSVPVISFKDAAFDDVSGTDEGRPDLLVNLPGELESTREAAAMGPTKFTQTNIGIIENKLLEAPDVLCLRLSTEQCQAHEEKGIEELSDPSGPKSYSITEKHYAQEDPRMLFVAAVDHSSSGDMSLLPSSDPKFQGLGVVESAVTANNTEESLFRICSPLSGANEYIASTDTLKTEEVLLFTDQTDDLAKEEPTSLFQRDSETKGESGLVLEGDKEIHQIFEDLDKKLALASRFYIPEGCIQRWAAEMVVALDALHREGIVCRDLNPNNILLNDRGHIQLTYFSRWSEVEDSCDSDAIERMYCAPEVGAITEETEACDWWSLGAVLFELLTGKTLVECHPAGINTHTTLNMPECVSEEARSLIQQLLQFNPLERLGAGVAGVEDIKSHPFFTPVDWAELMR
Assay: KINATIV assay
Assay type: cell-based
Conditions: 1 μM, 90 minutes, BCWM.1 cells
Experimental: The cells were harvested and lysed. The lysates were directly labeled with an ATP-biotin probe. Bound kinases were identified and quantitated by ACTIVX as described in Patricelli et al., Biochemistry, 2007, 46(2): 350-358. The compounds were tested in duplicates against duplicate or quadruplicate control samples.
value-type: % change of MS signal compared to control sample (%)

{"columns": ["compound", "target-or-system", "observed-value"],
 "data": [
  ["C=CC(=O)N1CCC(CNc2nccc(Nc3ncc(C(=O)Nc4c(C)cccc4C)s3)n2)C1 (racemic)", "UniProtKB Q96S38", 35.0],
  ["C=CC(=O)N1CCC(Cn2ccc(Nc3ncc(C(=O)Nc4c(C)cccc4Cl)s3)n2)C1 (stereo not shown)", "UniProtKB Q96S38", 13.7],
  ["C=CC(=O)N1CC[C@@H](Nc2nccc(Nc3ncc(C(=O)Nc4c(C)cccc4C)s3)n2)C1", "UniProtKB Q96S38", 10.7],
  ["C=CC(=O)N1CCCCC(Nc2nccc(Nc3ncc(C(=O)Nc4c(C)cccc4C)s3)n2)C1 (stereo not shown)", "UniProtKB Q96S38", 29.7]
]}

---

Here the recorded % change of MS signal compared to control sample is given for each entry.
Target: MAP3K2 (Homo sapiens (Human), UniProt Q9Y2U5)
Sequence (Q9Y2U5 whole entry): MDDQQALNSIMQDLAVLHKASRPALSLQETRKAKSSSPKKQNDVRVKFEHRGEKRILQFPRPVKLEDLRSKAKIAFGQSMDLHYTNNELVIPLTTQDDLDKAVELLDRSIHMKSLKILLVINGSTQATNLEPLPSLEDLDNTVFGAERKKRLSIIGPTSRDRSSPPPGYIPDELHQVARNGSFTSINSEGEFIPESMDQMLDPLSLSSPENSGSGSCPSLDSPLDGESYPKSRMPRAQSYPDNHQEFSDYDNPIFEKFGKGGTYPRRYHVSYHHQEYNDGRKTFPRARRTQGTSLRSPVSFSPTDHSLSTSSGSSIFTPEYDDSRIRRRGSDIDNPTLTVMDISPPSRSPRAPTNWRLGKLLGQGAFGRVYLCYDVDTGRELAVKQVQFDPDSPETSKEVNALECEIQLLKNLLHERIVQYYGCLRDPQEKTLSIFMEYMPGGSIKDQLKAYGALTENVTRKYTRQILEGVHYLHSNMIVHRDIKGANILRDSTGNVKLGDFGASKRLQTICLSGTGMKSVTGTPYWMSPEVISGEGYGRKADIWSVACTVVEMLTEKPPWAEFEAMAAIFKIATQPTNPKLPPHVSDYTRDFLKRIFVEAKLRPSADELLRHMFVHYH
Test: KINATIV assay
Type: cell-based
Details: 1 μM, 90 minutes, BCWM.1 cells
value-type: % change of MS signal compared to control sample (%)

{"columns": ["compound", "observed-value"],
 "data": [
  ["C=CC(=O)N1CCC(Cn2ccc(Nc3ncc(C(=O)Nc4c(C)cccc4Cl)s3)n2)C1 (stereo not shown)", 21.3],
  ["C=CC(=O)N1CC[C@@H](Nc2nccc(Nc3ncc(C(=O)Nc4c(C)cccc4C)s3)n2)C1", 12.1],
  ["C=CC(=O)N1CCC(CNc2nccc(Nc3ncc(C(=O)Nc4c(C)cccc4C)s3)n2)C1 (racemic)", 3.5],
  ["C=CC(=O)N1CCCCC(Nc2nccc(Nc3ncc(C(=O)Nc4c(C)cccc4C)s3)n2)C1 (stereo not shown)", 4.9]
]}

---

Here the recorded % change of MS signal compared to control sample is given for each entry.
Target: IKKe (Homo sapiens (Human))
Sequence (Q14164 whole entry): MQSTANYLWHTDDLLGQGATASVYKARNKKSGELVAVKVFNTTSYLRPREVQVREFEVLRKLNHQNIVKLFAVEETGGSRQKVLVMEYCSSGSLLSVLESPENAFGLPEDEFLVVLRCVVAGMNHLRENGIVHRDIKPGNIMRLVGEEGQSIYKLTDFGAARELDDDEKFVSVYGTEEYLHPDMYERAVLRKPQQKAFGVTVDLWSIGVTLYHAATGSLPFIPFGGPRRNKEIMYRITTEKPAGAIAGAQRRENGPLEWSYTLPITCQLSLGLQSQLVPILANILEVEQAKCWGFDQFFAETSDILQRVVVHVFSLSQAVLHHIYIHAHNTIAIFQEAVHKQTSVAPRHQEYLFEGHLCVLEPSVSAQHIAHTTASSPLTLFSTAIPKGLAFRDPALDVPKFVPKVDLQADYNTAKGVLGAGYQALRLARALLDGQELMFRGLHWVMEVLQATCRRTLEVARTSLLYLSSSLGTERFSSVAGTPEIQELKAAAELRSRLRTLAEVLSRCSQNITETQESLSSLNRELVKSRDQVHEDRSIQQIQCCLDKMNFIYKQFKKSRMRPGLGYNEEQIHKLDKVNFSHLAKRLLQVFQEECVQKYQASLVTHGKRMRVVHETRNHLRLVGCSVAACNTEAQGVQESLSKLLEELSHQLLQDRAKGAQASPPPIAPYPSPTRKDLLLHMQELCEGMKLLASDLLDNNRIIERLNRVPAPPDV
Assay: KINATIV assay
Format: cell-based
Settings: 1 μM, 90 minutes, BCWM.1 cells
value-type: % change of MS signal compared to control sample (%)

{"columns": ["compound", "unit-of-measurement", "observed-value"],
 "data": [
  ["C=CC(=O)N1CCC(CNc2nccc(Nc3ncc(C(=O)Nc4c(C)cccc4C)s3)n2)C1 (racemic)", "%", "−5.9"],
  ["C=CC(=O)N1CC[C@@H](Nc2nccc(Nc3ncc(C(=O)Nc4c(C)cccc4C)s3)n2)C1", "%", 2.2],
  ["C=CC(=O)N1CCC(Cn2ccc(Nc3ncc(C(=O)Nc4c(C)cccc4Cl)s3)n2)C1 (stereo not shown)", "%", "−1.0"],
  ["C=CC(=O)N1CCCCC(Nc2nccc(Nc3ncc(C(=O)Nc4c(C)cccc4C)s3)n2)C1 (stereo not shown)", "%", 0.4]
]}

---

Here the recorded % change of MS signal compared to control sample is given for each entry.
Molecular target: FGR (Homo sapiens (Human), UniProt P09769)
Experiment: KINATIV assay
Assay type: cell-based
Conditions: 1 μM, 90 minutes, BCWM.1 cells
value-type: % change of MS signal compared to control sample (%)

{"columns": ["compound", "observed-value"],
 "data": [
  ["C=CC(=O)N1CC[C@@H](Nc2nccc(Nc3ncc(C(=O)Nc4c(C)cccc4C)s3)n2)C1", 87.0],
  ["C=CC(=O)N1CCC(CNc2nccc(Nc3ncc(C(=O)Nc4c(C)cccc4C)s3)n2)C1 (racemic)", 86.0],
  ["C=CC(=O)N1CCCCC(Nc2nccc(Nc3ncc(C(=O)Nc4c(C)cccc4C)s3)n2)C1 (stereo not shown)", 94.7],
  ["C=CC(=O)N1CCC(Cn2ccc(Nc3ncc(C(=O)Nc4c(C)cccc4Cl)s3)n2)C1 (stereo not shown)", 87.8]
]}

---

Biological target: PKD2 (Homo sapiens (Human))
Sequence (Q9BZL6 whole entry): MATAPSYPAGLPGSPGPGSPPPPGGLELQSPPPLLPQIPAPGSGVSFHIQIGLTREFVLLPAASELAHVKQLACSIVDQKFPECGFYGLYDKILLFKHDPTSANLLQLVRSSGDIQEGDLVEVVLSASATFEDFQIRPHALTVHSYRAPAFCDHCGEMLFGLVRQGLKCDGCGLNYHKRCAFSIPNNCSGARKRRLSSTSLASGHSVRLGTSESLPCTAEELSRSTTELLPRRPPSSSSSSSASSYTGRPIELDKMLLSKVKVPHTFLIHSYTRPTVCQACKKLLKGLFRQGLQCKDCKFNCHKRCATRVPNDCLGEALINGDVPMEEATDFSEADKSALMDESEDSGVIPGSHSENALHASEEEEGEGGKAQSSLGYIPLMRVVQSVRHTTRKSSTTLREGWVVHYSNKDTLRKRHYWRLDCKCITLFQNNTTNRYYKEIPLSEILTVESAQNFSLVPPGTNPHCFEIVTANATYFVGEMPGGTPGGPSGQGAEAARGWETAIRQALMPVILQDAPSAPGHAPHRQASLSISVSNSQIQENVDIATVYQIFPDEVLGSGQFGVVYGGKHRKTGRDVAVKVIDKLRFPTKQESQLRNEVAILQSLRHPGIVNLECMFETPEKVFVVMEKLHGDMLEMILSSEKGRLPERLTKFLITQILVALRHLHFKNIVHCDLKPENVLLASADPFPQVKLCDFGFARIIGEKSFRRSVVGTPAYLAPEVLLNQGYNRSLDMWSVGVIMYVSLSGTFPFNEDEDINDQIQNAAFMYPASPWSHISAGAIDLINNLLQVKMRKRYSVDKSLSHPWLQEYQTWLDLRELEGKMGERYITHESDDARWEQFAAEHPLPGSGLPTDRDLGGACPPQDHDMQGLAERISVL
Assay: KINATIV assay
Type: cell-based
Settings: 1 μM, 90 minutes, BCWM.1 cells
Here the recorded % change of MS signal compared to control sample is given for each entry.
value-type: % change of MS signal compared to control sample (%)

{"columns": ["molecule", "unit-of-measurement", "observed-value"],
 "data": [
  ["C=CC(=O)N1CC[C@@H](Nc2nccc(Nc3ncc(C(=O)Nc4c(C)cccc4C)s3)n2)C1 [Example I-4]", "%", 12.9],
  ["C=CC(=O)N1CCCCC(Nc2nccc(Nc3ncc(C(=O)Nc4c(C)cccc4C)s3)n2)C1 (stereo not shown) [Example I-7]", "%", 10.0],
  ["C=CC(=O)N1CCC(Cn2ccc(Nc3ncc(C(=O)Nc4c(C)cccc4Cl)s3)n2)C1 (stereo not shown) [II-1]", "%", 12.7],
  ["C=CC(=O)N1CCC(CNc2nccc(Nc3ncc(C(=O)Nc4c(C)cccc4C)s3)n2)C1 (racemic) [Example I-8]", "%", 8.7]
]}

---

Molecular target: CaMK4 (Homo sapiens (Human))
Sequence (Q16566 whole entry): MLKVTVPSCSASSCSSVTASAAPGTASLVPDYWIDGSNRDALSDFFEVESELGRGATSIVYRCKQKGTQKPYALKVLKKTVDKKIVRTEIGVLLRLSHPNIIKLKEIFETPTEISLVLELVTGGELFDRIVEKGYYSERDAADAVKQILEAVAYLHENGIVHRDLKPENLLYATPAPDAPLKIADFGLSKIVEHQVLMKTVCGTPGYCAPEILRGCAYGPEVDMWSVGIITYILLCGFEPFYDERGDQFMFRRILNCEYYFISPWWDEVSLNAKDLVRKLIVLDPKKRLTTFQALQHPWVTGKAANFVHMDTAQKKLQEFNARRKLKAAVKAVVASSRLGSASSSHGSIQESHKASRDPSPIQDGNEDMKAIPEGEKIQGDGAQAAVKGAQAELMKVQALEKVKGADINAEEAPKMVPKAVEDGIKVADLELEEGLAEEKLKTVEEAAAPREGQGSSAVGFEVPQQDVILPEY
Test: KINATIV assay
Assay type: cell-based
Conditions: 1 μM, 90 minutes, BCWM.1 cells
Here the recorded % change of MS signal compared to control sample is given for each entry.
value-type: % change of MS signal compared to control sample (%)

{"columns": ["compound", "unit-of-measurement", "observed-value"],
 "data": [
  ["C=CC(=O)N1CCC(Cn2ccc(Nc3ncc(C(=O)Nc4c(C)cccc4Cl)s3)n2)C1 (stereo not shown)", "%", "−10.3"],
  ["C=CC(=O)N1CC[C@@H](Nc2nccc(Nc3ncc(C(=O)Nc4c(C)cccc4C)s3)n2)C1", "%", "−7.1"],
  ["C=CC(=O)N1CCCCC(Nc2nccc(Nc3ncc(C(=O)Nc4c(C)cccc4C)s3)n2)C1 (stereo not shown)", "%", "−24.9"],
  ["C=CC(=O)N1CCC(CNc2nccc(Nc3ncc(C(=O)Nc4c(C)cccc4C)s3)n2)C1 (racemic)", "%", "−26.3"]
]}

---

Molecular target: TAO2 (Homo sapiens (Human))
Sequence (Q9UL54 whole entry): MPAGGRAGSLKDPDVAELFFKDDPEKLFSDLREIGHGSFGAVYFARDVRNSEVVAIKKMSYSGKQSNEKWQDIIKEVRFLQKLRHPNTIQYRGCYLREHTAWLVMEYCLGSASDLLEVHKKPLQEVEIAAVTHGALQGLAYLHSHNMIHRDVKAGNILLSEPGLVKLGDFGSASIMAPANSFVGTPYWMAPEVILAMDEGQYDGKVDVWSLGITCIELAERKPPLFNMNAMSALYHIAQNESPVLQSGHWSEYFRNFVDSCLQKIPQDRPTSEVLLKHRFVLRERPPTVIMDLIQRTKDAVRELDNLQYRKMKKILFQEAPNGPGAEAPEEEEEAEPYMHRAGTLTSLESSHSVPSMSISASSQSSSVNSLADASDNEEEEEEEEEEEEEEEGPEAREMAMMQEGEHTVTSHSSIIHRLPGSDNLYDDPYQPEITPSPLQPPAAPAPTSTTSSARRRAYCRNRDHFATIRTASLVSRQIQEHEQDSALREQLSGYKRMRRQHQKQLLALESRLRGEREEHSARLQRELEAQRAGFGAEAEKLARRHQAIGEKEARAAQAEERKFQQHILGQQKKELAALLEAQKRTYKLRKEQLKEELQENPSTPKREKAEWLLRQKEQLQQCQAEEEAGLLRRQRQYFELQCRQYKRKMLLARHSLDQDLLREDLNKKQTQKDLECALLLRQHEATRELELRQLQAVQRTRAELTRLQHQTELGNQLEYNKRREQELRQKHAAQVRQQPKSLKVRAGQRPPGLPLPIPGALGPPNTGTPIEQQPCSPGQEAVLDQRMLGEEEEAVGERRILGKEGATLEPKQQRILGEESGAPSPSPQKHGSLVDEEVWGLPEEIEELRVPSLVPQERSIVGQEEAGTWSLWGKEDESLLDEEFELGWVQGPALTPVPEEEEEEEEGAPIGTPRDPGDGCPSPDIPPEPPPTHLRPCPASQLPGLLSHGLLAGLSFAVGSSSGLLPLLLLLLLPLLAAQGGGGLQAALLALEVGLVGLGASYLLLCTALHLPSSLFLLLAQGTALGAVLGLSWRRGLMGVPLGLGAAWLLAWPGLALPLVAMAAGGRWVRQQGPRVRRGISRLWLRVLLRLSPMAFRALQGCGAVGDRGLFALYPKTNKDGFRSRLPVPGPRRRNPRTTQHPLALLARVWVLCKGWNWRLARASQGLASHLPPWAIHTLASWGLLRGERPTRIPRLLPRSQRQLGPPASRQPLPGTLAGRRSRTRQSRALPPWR
Assay: KINATIV assay
Format: cell-based
Details: 1 μM, 90 minutes, BCWM.1 cells
Here the recorded % change of MS signal compared to control sample is given for each entry.
value-type: % change of MS signal compared to control sample (%)

{"columns": ["compound", "unit-of-measurement", "observed-value"],
 "data": [
  ["C=CC(=O)N1CCCCC(Nc2nccc(Nc3ncc(C(=O)Nc4c(C)cccc4C)s3)n2)C1 (stereo not shown)", "%", "−18.0"],
  ["C=CC(=O)N1CCC(CNc2nccc(Nc3ncc(C(=O)Nc4c(C)cccc4C)s3)n2)C1 (racemic)", "%", "−4.9"],
  ["C=CC(=O)N1CCC(Cn2ccc(Nc3ncc(C(=O)Nc4c(C)cccc4Cl)s3)n2)C1 (stereo not shown)", "%", "−17.9"],
  ["C=CC(=O)N1CC[C@@H](Nc2nccc(Nc3ncc(C(=O)Nc4c(C)cccc4C)s3)n2)C1", "%", "−7.0"]
]}

---

System: OCI-Ly19
Assay: CellTiter-Glo Luminescent cell viability assay
Format: cell-based
Settings: cell survival, 72 hours
Experimental: The inhibitory activities of exemplary compounds described herein against select protein kinases and cells were determined. Cell survival following treatment of exemplary compounds described herein was assessed by CellTiter-Glo® Luminescent cell viability assay (Promega). […] Luminescent measurement is performed using the 2104 Envision® Multilabel Reader (PerkinElmer Inc.). EC50 values were calculated with […] […]
Values of EC50 strictly less than 7 µM map to true (1), and values of at least 7 µM map to false (0).

{"columns": ["molecule", "group-label"],
 "data": [
  ["C=CC(=O)N1CCCCC(Nc2nccc(Nc3ncc(C(=O)Nc4c(C)cccc4C)s3)n2)C1 (centres unmarked)", "true (1)"],
  ["C=CC(=O)N1CCC(n2cc(Nc3ncc(C(=O)Nc4c(C)cccc4Cl)s3)cn2)CC1", "false (0)"],
  ["c1ccc(Oc2ccc3nc(Nc4cnn(C5CCOCC5)c4)sc3n2)cc1", "false (0)"],
  ["C=CC(=O)N1CC[C@@H](Nc2nccc(Nc3nc4ccc(Oc5ccccc5)nc4s3)n2)C1", "true (1)"],
  ["C=CC(=O)N1CCCC(Cn2ccc(Nc3ncc(C(=O)Nc4c(C)cccc4Cl)s3)n2)C1 (centres unmarked)", "true (1)"],
  ["C=CC(=O)N1CCCCC(Nc2nccc(Nc3nc4ccc(Oc5ccccc5)nc4s3)n2)C1 (centres unmarked)", "true (1)"],
  ["C=CC(=O)N1CC[C@H](Nc2nc(CN3CCOCC3)cc(Nc3ncc(C(=O)Nc4c(C)cccc4C)s3)n2)C1", "false (0)"]
]}
